test system: renal progenitor cells; assay: In situ hybridization for lhx1a expression in 10-somite embryos (renal progenitor cell expansion); assay type: in vivo; conditions: 200 nM from 2 hpf, 10-somite embryos; on Lhx1a expansion caused by analog treatment, 200 nM: key: effective (+); partially effective (+/−); ineffective (−); Analogs that killed all embryos at a given concentration before reaching 10 somites are listed as XX
recorded-metric: Lhx1a expansion caused by analog treatment, 200 nM

Below are worked cases with known answers.
O=C(CCCSc1ccc(F)cc1)NO    −
Cc1ccc(SCCCC(=O)NO)cc1    −
CCC(=O)CCCCC[C@@H]1NC(=O)[C@H]2CCCCN2C(=O)[C@H]([C@@H](C)CC)NC(=O)[C@H](Cc2cn(OC)c3ccccc23)NC1=O [apicidin, reference compound]    −
CC(/C=C/C(=O)NO)=C\[C@@H](C)C(=O)c1ccc(N(C)C)cc1 [TSA, trichostatin A, reference compound]    +
COC(=O)CCCSc1ccc(C)cc1    −

Alright, here's another molecule for you.
Record lookup: for renal progenitor cells, what Lhx1a expansion caused by analog treatment, 200 nM belongs to COC(=O)CCCSc1ccc(F)cc1 ?
+/−

###

test system: renal progenitor cells; experiment: In situ hybridization for lhx1a expression in 10-somite embryos (renal progenitor cell expansion); type: in vivo; settings: Danio rerio, percent of embryos with expanded kidney field; 800 nM; read-out: Expansion of Cells (including repeats* and recounts**) 800 nM
recorded-metric: responders at 0.8 µM

Worked examples, 2 molecules total:
Nc1ccccc1NC(=O)CCCCCSc1ncccn1    5%
COC(=O)CCCSc1ccc(OC)cc1    39%

Here is the next item to consider.
Form entry - test system: renal progenitor cells; read-out: responders at 0.8 µM; molecule: Nc1ccccc1NC(=O)CCCCCS(=O)(=O)c1ccc2ccccc2c1
5%

###

The following molecules are shown together with reported Dead values.
system: zebrafish embryos; assay: Phenotypic screen for edema and survival in zebrafish larvae at 72 hpf; conditions: number of larvae (of 36); 3 μM from 2 hpf, scored at 72 hpf
Would you mind answering with just the numeric figure?

COC(=O)CCCSc1ccc(Cl)cc1    1
CCCC(=O)O [butanoic acid, reference compound]    1
O=C(O)CCCOc1ccccc1 [4-phenoxybutanoic acid, reference compound]    0
COC(=O)CCCSc1ccc(C)cc1    11
CCC(=O)CCCCC[C@@H]1NC(=O)[C@H]2CCCCN2C(=O)[C@H]([C@@H](C)CC)NC(=O)[C@H](Cc2cn(OC)c3ccccc23)NC1=O [apicidin, reference compound]    36

We now examine a further molecule.
If you can, please state the reported Dead value of CC(C)(C)OC(=O)CCCSc1ccccc1 [tert-butyl 4-(phenylthio)butanoate] .
0

###

tested on: renal progenitor cells; experiment: In situ hybridization for lhx1a expression in 10-somite embryos (renal progenitor cell expansion); format: in vivo; settings: Danio rerio; first pass EC50 from percent expansion (Excel trendline); average where several experiments
Listed next: entries and their corresponding EC50.
Give the quantity in nM, number only.

// solved cases for EC50 follow
COC(=O)CCCSc1ccccc1 [UPHD-00025]    432
O=C(CCCSc1ccc(F)cc1)NO [UPHD-00029]    1310

// EC50 lookup, key: COC(=O)CCCSc1ccc(F)cc1 [UPHD-00030]
485

###

test system: renal progenitor cells; assay: In situ hybridization for lhx1a expression in 10-somite embryos (renal progenitor cell expansion); assay type: in vivo; settings: Danio rerio; first pass EC50 from percent expansion (Excel trendline); average where several experiments
pEC50: −log10 of the molar value.
pEC50: recorded values

COC(=O)CCCCSc1ccccc1 [UPHD-00033, methyl 5-(phenylsulfanyl)pentanoate]    < 5.52
COC(=O)CCCCCSc1ncccn1 [UPHD-00058]    < 5.52

Now for another entry.
I would be grateful if you could share the reported pEC50 for O=C(CCCCCSc1ccccc1)NO [UPHD-00050, N-hydroxy-6-(phenyl-sulfanyl)hexanamide] .
< 5.52

###

Property: EC50; scope: individual compounds
tested on: renal progenitor cells; experiment: In situ hybridization for lhx1a expression in 10-somite embryos (renal progenitor cell expansion); format: in vivo; details: Danio rerio; first pass EC50 from percent expansion (Excel trendline); average where several experiments

A selection of reference data follows.
O=C(CCCCCCSc1ccccc1)NO [UPHD-00041]    > 3000 nM
COC(=O)CCCCCCSc1ccccc1 [UPHD-00040, methyl 7-(phenylsulfanyl)heptanoate]    > 3000 nM

Moving on to another compound below.
Endpoint output: EC50 of O=C(CCCCCS(=O)(=O)c1ccc2ccccc2c1)NO [UPHD-00069] . Value?
> 3000 nM

The origin of these recorded values is patent US10160705B2.
